B1: TRIM63 (parent)
chain: FRCPTCRHEVIMDRHGVYGLQRNL

Variants of: B1
protocol text: protein stability index of a GFP-peptide fusion (GPS, HEK-293T) (PSI 1-6); higher = more stable;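 note: lentivirally expressed fusions sorted by FACS into six bins by GFP to DsRed ratio, PSI derived from sequencing read proportions per bin multiplied by bin number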
reported conditions: c terminus: a fixed tail appended
We begin with a simple list: items and their reported protein stability index.

[
  {
    "changes": "V17G",
    "protein stability index": 3.09
  },
  {
    "changes": "E9P",
    "protein stability index": 1.94
  },
  {
    "changes": "N23T",
    "protein stability index": 1.67
  },
  {
    "changes": "G16N",
    "protein stability index": 2.2
  },
  {
    "changes": "R22S",
    "protein stability index": 2.35
  },
  {
    "changes": "L20G",
    "protein stability index": 1.66
  },
  {
    "changes": "G16T",
    "protein stability index": 1.65
  },
  {
    "changes": "M12S",
    "protein stability index": 3.59
  },
  {
    "changes": "E9K",
    "protein stability index": 1.01
  },
  {
    "changes": "T5G",
    "protein stability index": 1.33
  },
  {
    "changes": "F1T",
    "protein stability index": 3.56
  },
  {
    "changes": "I11D",
    "protein stability index": 1.08
  },
  {
    "changes": "T5L",
    "protein stability index": 1.72
  },
  {
    "changes": "M12I",
    "protein stability index": 3.22
  },
  {
    "changes": "N23D",
    "protein stability index": 2.55
  },
  {
    "changes": "I11P",
    "protein stability index": 2.05
  },
  {
    "changes": "Y18K",
    "protein stability index": 1.98
  },
  {
    "changes": "C6Y",
    "protein stability index": 2.37
  },
  {
    "changes": "V10S",
    "protein stability index": 3.91
  },
  {
    "changes": "R14E",
    "protein stability index": 3.1
  },
  {
    "changes": "L24R",
    "protein stability index": 1.7
  },
  {
    "changes": "R2C",
    "protein stability index": 2.58
  },
  {
    "changes": "H8Q",
    "protein stability index": 1.91
  },
  {
    "changes": "M12F",
    "protein stability index": 2.18
  },
  {
    "changes": "E9N",
    "protein stability index": 2.69
  },
  {
    "changes": "R7D",
    "protein stability index": 3.28
  },
  {
    "changes": "Q21V",
    "protein stability index": 1.59
  },
  {
    "changes": "C3W",
    "protein stability index": 2.18
  },
  {
    "changes": "V10I",
    "protein stability index": 2.51
  },
  {
    "changes": "T5D",
    "protein stability index": 3.7
  },
  {
    "changes": "C3P",
    "protein stability index": 1.94
  },
  {
    "changes": "C6A",
    "protein stability index": 2.57
  },
  {
    "changes": "H15Y",
    "protein stability index": 2.49
  },
  {
    "changes": "L24F",
    "protein stability index": 1.61
  },
  {
    "changes": "R22P",
    "protein stability index": 2.49
  },
  {
    "changes": "H8D",
    "protein stability index": 1.77
  },
  {
    "changes": "R2P",
    "protein stability index": 1.56
  },
  {
    "changes": "N23Y",
    "protein stability index": 1.25
  },
  {
    "changes": "L20I",
    "protein stability index": 1.6
  },
  {
    "changes": "L20R",
    "protein stability index": 1.08
  },
  {
    "changes": "Y18C",
    "protein stability index": 2.06
  },
  {
    "changes": "C3H",
    "protein stability index": 4.77
  },
  {
    "changes": "T5H",
    "protein stability index": 3.16
  },
  {
    "changes": "R2F",
    "protein stability index": 3.38
  },
  {
    "changes": "H8N",
    "protein stability index": 2.24
  },
  {
    "changes": "V10C",
    "protein stability index": 2.18
  },
  {
    "changes": "Q21S",
    "protein stability index": 1.55
  },
  {
    "changes": "E9D",
    "protein stability index": 1.79
  },
  {
    "changes": "R14F",
    "protein stability index": 1.7
  },
  {
    "changes": "R22M",
    "protein stability index": 1.45
  },
  {
    "changes": "C3M",
    "protein stability index": 4.35
  },
  {
    "changes": "C6S",
    "protein stability index": 2.09
  },
  {
    "changes": "V10W",
    "protein stability index": 2.16
  },
  {
    "changes": "T5N",
    "protein stability index": 3.43
  },
  {
    "changes": "N23A",
    "protein stability index": 1.79
  },
  {
    "changes": "M12D",
    "protein stability index": 1.99
  },
  {
    "changes": "Y18L",
    "protein stability index": 2.54
  },
  {
    "changes": "T5A",
    "protein stability index": 2.39
  },
  {
    "changes": "L24A",
    "protein stability index": 2.34
  },
  {
    "changes": "R14L",
    "protein stability index": 2.05
  },
  {
    "changes": "F1H",
    "protein stability index": 2.39
  },
  {
    "changes": "N23Q",
    "protein stability index": 2.67
  },
  {
    "changes": "P4E",
    "protein stability index": 2.16
  },
  {
    "changes": "I11Q",
    "protein stability index": 1.61
  },
  {
    "changes": "F1L",
    "protein stability index": 3.27
  },
  {
    "changes": "F1N",
    "protein stability index": 3.53
  },
  {
    "changes": "Y18W",
    "protein stability index": 1.94
  },
  {
    "changes": "L20T",
    "protein stability index": 2.81
  },
  {
    "changes": "L24E",
    "protein stability index": 2.46
  },
  {
    "changes": "L24Q",
    "protein stability index": 2.26
  },
  {
    "changes": "R7T",
    "protein stability index": 2.35
  },
  {
    "changes": "H8C",
    "protein stability index": 2.52
  },
  {
    "changes": "Y18E",
    "protein stability index": 3.06
  },
  {
    "changes": "L20F",
    "protein stability index": 2.02
  },
  {
    "changes": "H8W",
    "protein stability index": 1.72
  },
  {
    "changes": "H15V",
    "protein stability index": 3.01
  },
  {
    "changes": "T5I",
    "protein stability index": 2.53
  },
  {
    "changes": "H15L",
    "protein stability index": 2.17
  },
  {
    "changes": "M12L",
    "protein stability index": 2.66
  },
  {
    "changes": "R2E",
    "protein stability index": 2.55
  },
  {
    "changes": "F1D",
    "protein stability index": 2.76
  }
]
